# assay_name: A549 cell viability effects, profiling panel, calcein-AM fluorescence, 48 h, basal (AID 1162); note: test concentration not given here
# test_conditions: higher = more signal
Field: z-score. Provide a value for each of the compounds that follow.
Respond with the number and no other words.

Query block: Give the measured z-score of COCCOC(=O)N1C(=O)[C@@]2(c3cc(C#CC4(O)CCCCCC4)ccc31)[C@H](c1ccc(O)cc1)N1[C@H](c3ccccc3)[C@H](c3ccccc3)OC(=O)[C@H]1[C@@H]2C(N)=O .
Result block: 0.0692

Query block: Would you kindly repeat that for CC(C)(C)OC(=O)CC[C@]1(C(=O)NCc2ccccc2)COC(c2ccc(OCCCO)cc2)=N1 ?
Result block: 0.661

Query block: Similarly, [N-]=[N+]=NCc1ccccc1C[C@@]1(C(=O)NCc2ccccc2)N=C(c2ccc(OCCCO)cc2)O[C@@H]1c1ccccc1 ?
Result block: -2.22

Query block: Ok, now C=CCC(OC(C)=O)[C@@H]1[C@@H](N(Cc2cccc3ccccc23)C(=O)Cc2ccc(OC)cc2)c2cc(OCCCO)ccc2N1C(=O)Cc1ccc(OC)cc1 (some centres undefined)
Result block: 1.25

Query block: Item: O=C(NCc1ccccc1)[C@@H]1c2ccccc2C(=O)N(Cc2ccccc2Cl)[C@H]1c1ccc(CO)cc1
Result block: 0.703

Query block: // same read-out, input: CC(CO)N1C(=O)[C@@H]2C3C(=O)OCCC/C=C\[C@H]3OC23C=CCN(Cc2ccccc2)C(=O)[C@@H]13 (some centres undefined)
Result block: 1.59

Query block: Try this compound too: CO[C@H]1O[C@H](CO)[C@@H](OC(=O)Nc2ccccc2)[C@H](OC(=O)Nc2ccc3c(c2)OCO3)[C@H]1OC(=O)Nc1ccc2c(c1)OCO2
Result block: 0.275

Query block: Further, for COC(=O)C(CC#Cc1ccc2c(c1)[C@]1(C(=O)N2)[C@H](C(N)=O)[C@H]2C(=O)O[C@H](c3ccccc3)[C@H](c3ccccc3)N2[C@@H]1c1ccc(O)cc1)C(=O)OC ?
Result block: 0.685

Query block: // same read-out, input: CCCNC(=O)[C@@]1(Sc2ccc(C)cc2)CC(=O)N(Cc2cc(C(F)(F)F)cc(C(F)(F)F)c2)[C@@H]1c1ccc(CO)cc1I
Result block: 2.5

Query block: Param item: CC(C)CNC(=O)[C@@H]1c2ccccc2C(=O)N(Cc2ccc(OC(F)(F)F)cc2)[C@H]1c1ccc(CO)cc1
Result block: 2.26

Query block: Also need C=CCC(OC(C)=O)[C@@H]1[C@@H](N(Cc2cccc3ccccc23)C(=O)c2cccc3ccccc23)c2cc(OCCCO)ccc2N1C(=O)Cc1ccc(OC)cc1 (some centres undefined) , thanks.
Result block: 0.725

Query block: Same read-out for COCCCNC(=O)[C@@]1(CCS(=O)(=O)c2ccccc2)N=C(c2ccc(OCCCO)cc2)O[C@H]1c1ccccc1CN=[N+]=[N-] ?
Result block: 1

Query block: Can you check CO[C@H]1O[C@H](CO)[C@@H](OC(=O)CCc2ccccc2)[C@@H]2OC(=O)[C@H](Cc3ccccc3)C/C=C/C[C@@H](Cc3ccccc3)C(=O)O[C@@H]12 next?
Result block: 1.38

Query block: Let us now turn to [N-]=[N+]=NCc1ccccc1C[C@]1(C(=O)NCc2ccccc2)N=C(c2ccc(OCCCO)cc2)O[C@H]1c1ccccc1
Result block: -2.79

====

# assay_name: small-molecule binders of probe aNOTCH2, primary screen, biochemical, small-molecule microarray, 635/667 nm fluorescence (AID 1121);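 note: score merges feature fluorescence read at 667 nm with its signal to noise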
# test_conditions: higher = more signal
parameter: composite z-score

Query block: Report composite z-score for CC(C)CCC[C@@H](C)[C@H]1CC[C@@]2(C)C3=C(CC[C@]12C)[C@@]1(C)CC[C@H](OC(=O)CCl)C(C)(C)C1CC3 (stereo partly drawn) please.
Result block: -0.0829

Query block: CC(C)C[C@@H]1NC(=O)[C@@]23C(=O)N[C@@H](Cc4ccccc4)C2[C@H](C)[C@@]2(C)O[C@H]2C3/C=C/CC/C=C/CNC(=O)[C@@H](C)NC1=O (stereo partly drawn) ?
Result block: -0.179

Query block: Also check COc1ccc([Si](C)(C)[C@@H]2[C@@H](CCn3cc([C@H](O)c4ccccc4)nn3)O[C@]3(C(=O)N(C)c4c(Br)cc(C)cc43)[C@H]2C)cc1
Result block: -0.118

====

# assay_name: HepG2 cell viability effects, profiling panel, calcein-AM fluorescence, 48 h, basal (AID 1164); note: test concentration not given here
# test_conditions: higher = more signal
Label Yes when z-score >= 0.3; otherwise No.

Query block: Check if z-score >= 0.3 (inclusive). Item: C[N+](C)(C)CCCC[C@@H]1NC(=O)[C@@H]2C[C@H](C(=O)NCCCCCNC(=O)CS)[C@H](c3ccc(O)cc3)N2C1=O
Result block: No

Query block: Entry to check: COc1ccc(CCNC(=O)[C@@]2(Sc3ccc(C)cc3)CC(=O)N(Cc3ccccc3)[C@@H]2c2ccc(CO)cc2I)cc1
Result block: No

Query block: What do you get for COCCCNC(=O)[C@@]1(CCS(=O)(=O)c2ccccc2)N=C(c2ccc(OCCCO)cc2)O[C@H]1c1ccccc1CN=[N+]=[N-] ?
Result block: No

Query block: And what about the molecule COCCOC(=O)N1C(=O)[C@@]2(c3ccccc31)[C@H](C(=O)Nc1nc3ccccc3s1)[C@H]1C(=O)O[C@H](c3ccccc3)[C@H](c3ccccc3)N1[C@@H]2c1ccc(O)cc1 ?
Result block: No

Query block: Here is the next molecule: CC(C)C(=C=CC[C@@H](O)c1ccc(CO)o1)CCO
Result block: Yes

Query block: Another molecule to check: O=C(NCc1ccccc1)[C@@H]1c2ccccc2C(=O)N(Cc2ccccc2Cl)[C@H]1c1ccc(CO)cc1
Result block: No

Query block: Queued: C=CCC(OC(C)=O)[C@@H]1[C@@H](N(Cc2ccc(-c3cccc(C(F)(F)F)c3)o2)C(=O)c2ccc(-c3ccccc3)cc2)c2cc(OCCCO)ccc2N1C(=O)Cc1ccc(OC)cc1 (stereo not given in full)
Result block: Yes

Query block: How about this molecule: C=C1C=C(Br)C2(OCCCO2)[C@H]2OC12 (stereo not given in full)
Result block: Yes

Query block: Try the molecule CC(C)C[C@@H]1NC(=O)[C@@]23C(=O)N[C@@H](Cc4ccccc4)C2[C@H](C)[C@@]2(C)O[C@H]2C3/C=C/C/C=C\CNC(=O)[C@H](Cc2ccccc2)NC1=O (stereo not given in full)
Result block: Yes

Query block: Repeat with COc1ccc(/C=C/C(=O)c2cccc(OCC(=O)OC(C)(C)C)c2)cc1
Result block: No

Query block: Consider next the molecule COC(=O)C(CC#Cc1ccc2c(c1)[C@]1(C(=O)N2)[C@H](C(N)=O)[C@H]2C(=O)O[C@H](c3ccccc3)[C@H](c3ccccc3)N2[C@@H]1c1ccc(O)cc1)C(=O)OC in the same way.
Result block: Yes

Query block: For COC(=O)c1c2oc(c1C(=O)OC)C(=O)N[C@@H](C(C)C)Cn1nncc1C1(CCCCC1)NC(=O)N[C@H](CO)CC2 then?
Result block: Yes

Query block: What do you get for C=C(COC)C(=O)CC[C@@H](OC(=O)c1ccccc1-c1ccccc1C(=O)O)c1cccc(OCCO)c1 ?
Result block: No

Query block: Query CC(C)N1CC=CC23O[C@@H]4/C=C\CCCOC(=O)C4[C@H]2C(=O)N(CCCO)[C@@H]3C1=O (stereo not given in full) next
Result block: No

Query block: Also, C=CCN1C(=O)[C@@]2(O[C@@H](CCn3cc(CCO)nn3)[C@H]([Si](C)(C)c3ccc(OC)cc3)[C@H]2C)c2cc(N3C(=O)c4cccc5cccc3c45)ccc21 please.
Result block: No

====

# assay_name: HepG2 cell viability effects, profiling panel, calcein-AM fluorescence, 48 h, basal (AID 1164); note: test concentration not given here
# test_conditions: higher = more signal
parameter: z-score
// response body must contain only the number

Query block: Quick one: z-score of CC1CC/C=C\[C@H]2OC34C=CCN(C(C)C)C(=O)[C@H]3N(C(CO)C(C)C)C(=O)[C@@H]4C2C(=O)O1 (some centres undefined) ?
Result block: -0.0224

Query block: Then what about the molecule O=C(O)[C@H]1C[C@H]2C(=O)N[C@@H](Cc3ccccc3)C(=O)N2[C@H]1c1ccc(O)cc1 ?
Result block: -0.142

Query block: Param item: Cc1ccc(N2C(=O)c3ccccc3[C@](C)(C(=O)NCC(F)(F)F)[C@@H]2c2ccc(CO)cc2)nc1
Result block: 0.529

Query block: Quick one: CCCCCCC#C[Si](O[C@H](c1ccccc1)c1cn(Cc2ccccc2)nn1)(C(C)C)C(C)C
Result block: -0.316

====

# measured_on: Follistatin (Homo sapiens) (UniProt P19883)
# Sequence (P19883 whole entry, looked up): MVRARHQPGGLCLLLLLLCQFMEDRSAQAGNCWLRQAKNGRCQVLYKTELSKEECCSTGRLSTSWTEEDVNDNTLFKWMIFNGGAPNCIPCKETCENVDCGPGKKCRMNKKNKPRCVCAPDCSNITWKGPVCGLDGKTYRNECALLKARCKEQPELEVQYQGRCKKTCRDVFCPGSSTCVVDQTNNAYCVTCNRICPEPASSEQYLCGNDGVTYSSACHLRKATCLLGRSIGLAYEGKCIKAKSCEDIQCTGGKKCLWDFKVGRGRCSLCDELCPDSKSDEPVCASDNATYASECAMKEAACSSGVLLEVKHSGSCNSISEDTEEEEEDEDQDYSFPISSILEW
# assay_name: follistatin binders on small-molecule microarrays, primary screen, biochemical, small-molecule microarray, 635/667 nm fluorescence (AID 1132)
# test_conditions: FST binding, 635 nm fluorescence, higher = more signal
Returns true (1) if the recorded composite z-score is greater than or equal to 0.2, and false (0) otherwise.

Query block: Confirm if composite z-score reported for the compound C=CCC(OC(C)=O)[C@@H]1[C@@H](N(Cc2cc3ccccc3o2)C(=O)c2ccc(-c3ccccc3)cc2)c2cc(OCCCO)ccc2N1C(=O)c1ccc(-c2ccccc2)cc1 (some centres undefined) is 0.2 or above.
Result block: true (1)

Query block: What do you get for CC(C)C[C@@H]1NC(=O)[C@@H]2C[C@H](C(=O)NCCCCCNC(=O)CS)[C@H](c3cccc(OCCO)c3)N2C1=O ?
Result block: true (1)

Query block: Here is the next compound: C=CCC1(CC=C)C[C@H]2CO[C@H](c3ccc(OC)cc3)N2C1=O
Result block: true (1)

Query block: Next record, please: C[C@@H](OCc1ccccc1)C1NC(=O)[C@@]23C(=O)N[C@@H](Cc4ccccc4)C2[C@H](C)[C@@]2(C)O[C@H]2C3/C=C/C/C=C\CNC(=O)[C@@H]2CCCN2C1=O (some centres undefined)
Result block: false (0)

Query block: Next entry: CC(C)C[C@@H]1NC(=O)[C@@]23C(=O)N[C@@H](Cc4ccccc4)C2[C@H](C)[C@@]2(C)O[C@H]2C3/C=C/C/C=C\CNC(=O)[C@H](Cc2ccccc2)NC1=O (some centres undefined)
Result block: true (1)

Query block: # iterate: CC(C)N1C(=O)c2ccccc2[C@@H](C(=O)NCc2ccccc2)[C@@H]1c1ccc(CO)cc1
Result block: true (1)

Query block: Then what about the compound C=C(C(=O)CC[C@H](OC(C)=O)c1ccc(CO)o1)C(C)C ?
Result block: true (1)

Query block: Thanks! And CCN(CC)c1ccc(N2CC=CC34O[C@@H]5C=CCOC(=O)[C@@H]5[C@H]3C(=O)N(C(C)CO)[C@@H]4C2=O)cc1 (some centres undefined) ?
Result block: false (0)

Query block: // repeat for C=C(/C(=C/C[C@H](OC(=O)c1ccncc1)c1cccc(OCCO)c1)c1cc(C(=O)OC)ccc1OC)C(C)C and report
Result block: false (0)

Query block: Entry C=C(COC)C(=O)CC[C@H](OC(=O)c1cccnc1)c1cccc(OCCO)c1 please
Result block: true (1)

Query block: How about this compound: CC(C)NC(=O)[C@@H]1c2ccccc2C(=O)N(Cc2cc(F)cc(C(F)(F)F)c2)[C@H]1c1ccc(CO)cc1
Result block: false (0)

Query block: Same question for O=C1O[C@H](c2ccccc2)[C@H](c2ccccc2)N2[C@H]1[C@@H](C(=O)Nc1nc3ccccc3s1)[C@]1(C(=O)Nc3ccc(C#CCCO)cc31)[C@H]2c1ccccc1OCCO please.
Result block: true (1)

Query block: Also, CCN(CC)c1ccc(N2CC=CC34O[C@@H]5C=CCOC(=O)[C@@H]5[C@H]3C(=O)N(C(CO)C(C)C)[C@@H]4C2=O)cc1 (some centres undefined) please.
Result block: false (0)

Query block: For CCOC(=O)C[C@H]1[C@H](OC(=O)c2ccc(C(=O)c3ccccc3)cc2)[C@@H](NC(=O)Cc2ccc(OC)cc2)c2cc(OCCCO)ccc2N1C(=O)Cc1ccc(OC)cc1 then?
Result block: true (1)
